The origin of these recorded values is the supplement of paper PMC10567573.

B1: PHTF1 (parent)
chain: RVKLISNKGTETDNDPSCVHPIIK

variants of: B1; assay: protein stability index of a GFP-peptide fusion (GPS, HEK-293T) (PSI 1-6); higher = more stable; details: c terminus: a fixed tail appended;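 note: lentivirally expressed fusions sorted by FACS into six bins by GFP to DsRed ratio, PSI derived from sequencing read proportions per bin multiplied by bin number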
Would you mind telling me the reported protein stability index of each entry?
Give bare numbers.

Would you be so kind as to report protein stability index for each listed record?
1. RVKLISNKGTETDNDPSCAHPIIK [V19A]
2. RVKLISNKPTETDNDPSCVHPIIK [G9P]
3. RVKLLSNKGTETDNDPSCVHPIIK [I5L]
4. RVKLICNKGTETDNDPSCVHPIIK [S6C]
5. RVKLISNKGTETDNDPSCKHPIIK [V19K]
6. RVKLISNSGTETDNDPSCVHPIIK [K8S]
7. RVKLISNKQTETDNDPSCVHPIIK [G9Q]

1. 4.34
2. 3.95
3. 4.4
4. 3.76
5. 4.28
6. 4.21
7. 4.31
